# test_system: T1, glucocorticoid-induced tumor necrosis factor receptor (GITR) (human, UniProt Q9Y5U5 26-241)
# T1 chain: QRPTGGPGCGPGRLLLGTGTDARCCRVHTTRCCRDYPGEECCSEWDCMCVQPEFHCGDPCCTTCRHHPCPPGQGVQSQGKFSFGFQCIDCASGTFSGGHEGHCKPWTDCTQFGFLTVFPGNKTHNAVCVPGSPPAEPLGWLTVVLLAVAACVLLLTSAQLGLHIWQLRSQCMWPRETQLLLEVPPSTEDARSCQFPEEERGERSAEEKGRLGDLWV
# run_description: flow cytometry, GITR-expressing 293T cells
Lab note: cut-off is 20 nM. Strictly less in EC50 is condition met. Exactly 20 nM or more is condition not met.

Query: Consider the binder mAb #1-81 (antibody, V domains shown, Found as scFv by phage display) VH: EVQLVESGAEVKKPGASVKVSCKTSGYTFTDHYIHWVRQAPGQGLEWMGWINPSSGGTEYAQKFQGRVTMTRDTPISTAYMDLSGLRSDDTAVYYCARETIGGWNALDVWGQGTLVTVSS VL: QPVLTQPPSASGTPGQRVTISCSGSSSNIGINTVNWYQQLPRTPPKLLIYTNNQRPSGVPDRFSGSKSDTSASLAISGLQSEDEADYYCAAWDDTLNGPLFGGGTKVTVLG . Is its EC50 strictly less than 20 nM?
Response: condition not met

Query: What do you have for mAb 3-167 (antibody, V domains shown) VH: EVQLVQSGSELKKPGASVKVSCKASGYTFTGYYMHWVRQAPGQGLEWMGWINPNSGGTNYAQKFQGRVTVTTDTSTSTAYMELRSLRSDDTAVYYCAREGVHSDAFDVWGQGTTVTVSS VL: ETTLTQSPATLSVSPGERATLSCRASQSVYTNLAWYQQKPGQAPSLLIYGASSRATGIPDRFSGSGSGTDFTLTISRLEPEDFAVYYCQQYGSSHFTFGPGTKVDIK ?
Response: condition not met

Query: What do you have for mAb #15-68 (antibody, V domains shown) VH: EVQLVQSGAEVKKPGASVNVSCKASGYTFTGYYMHWVRQAPGQGLEWMGWINPNSGGTNYAQKFQGRVTVTTDTSNSTAYMELNRLKSDDTAVYYCAREGSGDLDSLYMDVWGKGTMVTVSS VL: SYELTQPPSVSVAPGQTARITCGANNIGSKSVHWYQQKPGQAPVLVVYDDSDRPSGIPERFSGSNSGNTATLTITRVEAGDEADYYCQLWDGGSDVVFGGGTKLTVLG ?
Response: condition not met

Query: What do you have for mAb #5-139 (antibody, V domains shown) VH: EVQLVQSGAEVKKPGASVKVSCKTSGYTFTDHYIHWVRQAPGQGLEWMGWINPSSGGTEYAQKFQGRVTMTRDTPISTAYMDLSGLRSDDTAVYYCARETIGGWNALDVWGQGTTVTVSS VL: QSVLTQPPSASGSPGQRVTMSCSGSSSTIGRHSVNWYQQLPGTAPKLLIYANNQRPSGVPGRFSASKSDTSASLAISGLRSEDEANYYCAAWDDSLSGVLFGGGTKVTVLG ?
Response: condition met

Query: What do you have for mAb #13-169 (antibody, V domains shown) VH: EVQLVQSGAEVKRPGASLKVSCKASGYTFTSHYIHWVRQAPGQGLEWMGWINTGNGDTRYSQRFQGRVTVTRDTSASTVYMELSSLRSEDTAVYYCARESSSSWFVAFDVWGQGTTVTVSS VL: QPVLTQPPSVSLAPGQTARITCSEKNIRSKRVHWYQQKPGQAPVLVMYSDNGRRSGIPDRFSGSNSGNTATLTITRVEAGDEGDFYCQVWDPITDQVVFGGGTKLTVLG ?
Response: condition not met

Query: What do you have for mAb #7-192 (antibody, V domains shown) VH: EVQLVESGAEVKKPGASVKVSCKTSGYTFTDHYIHWVRQAPGQGLEWMGWINPSSGGTEYAQKFQGRVTMTRDTPISTAYMDLSGLRSDDTAVYYCARETIGGWNALDVWGQGTLVTVSS VL: MPVLTQPPSVSVAPGQTARITCGGHKIGTKSVHWYQQKPGQAPVLVVYDDRDRPSGIPERFSGSNSGGTATLTISRVEAGDEADYYCQVWDSNSDHVVFGGGTKLTVLS ?
Response: condition met
